- Test system: P388 leukemia ip, CD2F1 mice, survival T/C
- assay_info: NCI In Vivo Anticancer Drug Screen. Data for tumor model P388 Leukemia (intraperitoneal) in CD2F1 (CDF1) mice
- experimental_parameters: endpoint: median survival time; dose: 100.0 mg/kg/injection; schedule: Q01DX009 (ip); vehicle: saline with Tween-80; higher = longer survival
Toxic doses and inconclusive results are not listed.
Catalogue of molecules with associated T/C

Study these solved cases before continuing.
# input What T/C value was documented for this molecule, NC(=O)NN=C(C(F)(F)F)C(F)(F)F ?
# output 101 % of control

# input What would you report for ClCCN(CCCl)c1ccc(/C=N/Nc2ccnc3cc(Cl)ccc23)cc1 ?
# output 101 % of control

Further cases:
# input What T/C value was documented for this molecule, Cc1ccccc1NC(=O)c1ccc([N+](=O)[O-])cc1 ?
# output 100 % of control

# input What would you report for C=CC(=NC(C)(C)C)Nc1ccc(OC)cc1 ?
# output 112 % of control

###

Catalogue of compounds with associated T/C
- System: P388 leukemia ip, CD2F1 mice, survival T/C
- assay_info: NCI In Vivo Anticancer Drug Screen. Data for tumor model P388 Leukemia (intraperitoneal) in CD2F1 (CDF1) mice
- experimental_parameters: endpoint: median survival time; dose: 100.0 mg/kg/injection; schedule: Q01DX009 (ip); vehicle: saline with Tween-80; higher = longer survival
Inconclusive results and toxic doses are left out.

Study these solved cases before continuing.
# input What T/C value was documented for this compound, O=c1[nH]cnc2[nH]ncc12 ?
# output 95 % of control

# input What would you report for O=C1C2CCC(C2)C1C(O)(C(F)(F)F)C(F)(F)F (stereo not given) ?
# output 104 % of control

# input What would you report for O=C(/C(=C(\C(=O)c1ccccc1)c1ccccc1)c1ccccc1)c1ccccc1 ?
# output 92 % of control

# input What would you report for COc1ccccc1NC(CCN1CCCCC1)=NC(C)(C)C ?
# output 106 % of control

Further cases:
# input What T/C value was documented for this compound, c1ccc(C2OCC3(CO2)COC(c2ccccc2)OC3)cc1 (stereo not given) ?
# output 100 % of control

###

- Tested on: P388 leukemia ip, CD2F1 mice, survival T/C
- assay_info: NCI In Vivo Anticancer Drug Screen. Data for tumor model P388 Leukemia (intraperitoneal) in CD2F1 (CDF1) mice
- experimental_parameters: endpoint: median survival time; dose: 200.0 mg/kg/injection; schedule: Q01DX009 (ip); vehicle: Klucel (hydroxypropylcellulose) (HPC); higher = longer survival
Inconclusive results and toxic doses are left out.
observable: T/C

Study these solved cases before continuing.
# input What T/C value was documented for this molecule, Cc1ncc(C(O)CCC2OCCO2)n1Cc1ccccc1 (stereo not drawn) ?
# output 98 % of control

# input What would you report for O=C1OC(=O)C23Cc4ccccc4CC12CC1Cc2ccccc2CC1C3 (stereo not drawn) ?
# output 94 % of control

# input What would you report for CCCCCCCCC(=O)C(=O)c1ccc(O)cc1O ?
# output 113 % of control

# input What would you report for C/C=C/C=c1/[nH]c(=O)/c(=C\c2ccccc2)[nH]c1=O ?
# output 103 % of control

# input What would you report for CN(C(=S)SSC(=S)N(C)c1ccccc1)c1ccccc1 ?
# output 101 % of control

Further cases:
# input What T/C value was documented for this molecule, CP1(=S)C=C(N2CCOCC2)CC1 (stereo not drawn) ?
# output 86 % of control

###

Catalogue of compounds with associated T/C
- System: P388 leukemia ip, CD2F1 mice, survival T/C
- assay_info: NCI In Vivo Anticancer Drug Screen. Data for tumor model P388 Leukemia (intraperitoneal) in CD2F1 (CDF1) mice
- experimental_parameters: endpoint: median survival time; dose: 100.0 mg/kg/injection; schedule: Q01DX009 (ip); vehicle: saline; higher = longer survival
Toxic doses and inconclusive results are not listed.

Study these solved cases before continuing.
# input What T/C value was documented for this compound, C1CCC2CC3NC3CC2C1 (centres undefined) ?
# output 105 % of control

# input What would you report for Cc1cc(NC(=S)SCc2ccc(Cl)cc2)c([N+](=O)[O-])cc1C ?
# output 97 % of control

# input What would you report for O=C(O)C(CS(=O)(=O)O)Nc1ncnc2nc[nH]c12 (centres undefined) ?
# output 100 % of control

Could you now consider this next compound?
# input What T/C value was documented for this compound, C[CH](C)[Ge]([CH3])([CH](C)C)[CH](C)C ?
# output 93 % of control

###

- System: P388 leukemia ip, CD2F1 mice, survival T/C
- assay_info: NCI In Vivo Anticancer Drug Screen. Data for tumor model P388 Leukemia (intraperitoneal) in CD2F1 (CDF1) mice
- experimental_parameters: endpoint: median survival time; dose: 240.0 mg/kg/injection; schedule: Q01DX005 (ip); vehicle: saline with Tween-80; higher = longer survival
Inconclusive results and toxic doses are left out.
Catalogue of compounds with associated T/C

Study these solved cases before continuing.
# input What T/C value was documented for this compound, CCOC(=O)C1=C(C(=O)c2ccc(OC)cc2)C(c2c(Cl)cccc2Cl)C(C(=O)c2ccc(OC)cc2)=C(C(=O)OCC)N1 ?
# output 93 % of control

# input What would you report for Cc1onc(-c2c(F)cccc2Cl)c1-c1ncc(-c2ccc(Cl)cc2)o1 ?
# output 99 % of control

Further cases:
# input What T/C value was documented for this compound, Cc1onc(-c2ccccc2)c1C(=O)OCCOc1ccc(C(F)(F)F)cc1[N+](=O)[O-] ?
# output 90 % of control

# input What would you report for COc1cc(C2c3cc4c(cc3OC(C)(OC)C2C(C)=O)OCO4)cc(OC)c1OC (centres undefined) ?
# output 95 % of control

# input What would you report for COC1=C(Br)C(=O)N/C1=C(\OC)c1ccccc1 ?
# output 89 % of control

# input What would you report for Cc1ccc2c(c1)CN(C)c1ccc(C)cc1CN2C ?
# output 98 % of control

# input What would you report for COc1cc(C2c3cc4c(cc3OC(N3CCCC3)C2C)OCO4)cc(OC)c1OC (centres undefined) ?
# output 104 % of control

# input What would you report for CCOC(=O)CCC(CNC(=O)c1ccccc1)NC(=O)c1ccccc1 (centres undefined) ?
# output 88 % of control

# input What would you report for COc1ccc(OC)c(NC(=O)CCCC(=O)C(C#N)c2ccc(CC#N)cc2)c1 (centres undefined) ?
# output 103 % of control

# input What would you report for O=C1C=C2c3ccccc3CC(C(=O)O)C2CC1 (centres undefined) ?
# output 102 % of control

# input What would you report for CC(C)(C)c1ccc(-c2cc3nc(-c4ccccc4)cc(=O)n3[nH]2)cc1 ?
# output 98 % of control

###

- Test system: P388 leukemia ip, CD2F1 mice, survival T/C
- assay_info: NCI In Vivo Anticancer Drug Screen. Data for tumor model P388 Leukemia (intraperitoneal) in CD2F1 (CDF1) mice
- experimental_parameters: endpoint: median survival time; dose: 120.0 mg/kg/injection; schedule: Q01DX005 (ip); vehicle: saline with Tween-80; higher = longer survival
Toxic doses and inconclusive results are not listed.
Catalogue of molecules with associated T/C

# input What T/C value was documented for this molecule, Nc1ccccc1SC(C[N+](=O)[O-])c1ccc2c(c1)OCO2 (centres undefined) ?
# output 114 % of control

# input What would you report for CCc1nc(N)nc(N)c1-c1ccc(NC2CCCCC2)c([N+](=O)[O-])c1 ?
# output 95 % of control

# input What would you report for Cc1ccc2c(c1)CN(C)c1ccc(C)cc1CN2C ?
# output 100 % of control

# input What would you report for COc1c(-c2ccccc2)c(=O)n2c3cc(C)c(C)cc3n(C)c2c1C#N ?
# output 86 % of control

# input What would you report for Cc1ccc(S(=O)(=O)N2CCN(S(=O)(=O)c3ccc(C)cc3)COC2)cc1 ?
# output 97 % of control

# input What would you report for CCN(CC)c1ccc2cc(S(=O)(=O)c3ccccc3)c(=O)oc2c1 ?
# output 86 % of control

###

Catalogue of compounds with associated T/C
- Test system: P388 leukemia ip, CD2F1 mice, survival T/C
- assay_info: NCI In Vivo Anticancer Drug Screen. Data for tumor model P388 Leukemia (intraperitoneal) in CD2F1 (CDF1) mice
- experimental_parameters: endpoint: median survival time; dose: 200.0 mg/kg/injection; schedule: Q01DX005 (ip); vehicle: Klucel (hydroxypropylcellulose) (HPC); higher = longer survival
Toxic doses and inconclusive results are not listed.

# input What T/C value was documented for this compound, Cc1c2c(cc3c4ccccc4n(C)c13)C(=O)OC2=O ?
# output 97 % of control

# input What would you report for COc1cc2c(cc1OC)C(c1c(Cl)cccc1Cl)=NCC2 ?
# output 110 % of control

Could you now consider this next compound?
# input What T/C value was documented for this compound, O=C(O)c1cccc(SS(=O)(=O)c2cccc(C(=O)O)c2)c1 ?
# output 107 % of control
